- Tested on: RARg homodimer (NR concentration 270 nM)
- protocolSummary: PBM binding z-score (relative to random genomic background probes); higher = stronger binding; sequences stand for … in GC…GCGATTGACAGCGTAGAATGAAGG
measuredProperty: PBM binding z-score

Can you share its PBM binding z-score? I mean this sequence: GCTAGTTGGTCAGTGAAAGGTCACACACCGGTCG
4.94

# PBM binding z-score lookup, item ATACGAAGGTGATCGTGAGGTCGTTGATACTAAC
0.985

I'd like to know its PBM binding z-score. The sequence in question is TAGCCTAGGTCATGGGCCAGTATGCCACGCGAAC
4.47

Entry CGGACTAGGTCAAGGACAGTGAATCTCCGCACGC has what PBM binding z-score?
4.28

What does the record list as PBM binding z-score for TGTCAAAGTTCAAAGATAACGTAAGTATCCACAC ?
6.18

Tell me the measured PBM binding z-score of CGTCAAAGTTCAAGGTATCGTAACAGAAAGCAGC , please.
5.95
